Target: Drosophila OR49b (Drosophila melanogaster)
Construct: expressed in transfected cells
Sequence (Q9V6H2 1-375): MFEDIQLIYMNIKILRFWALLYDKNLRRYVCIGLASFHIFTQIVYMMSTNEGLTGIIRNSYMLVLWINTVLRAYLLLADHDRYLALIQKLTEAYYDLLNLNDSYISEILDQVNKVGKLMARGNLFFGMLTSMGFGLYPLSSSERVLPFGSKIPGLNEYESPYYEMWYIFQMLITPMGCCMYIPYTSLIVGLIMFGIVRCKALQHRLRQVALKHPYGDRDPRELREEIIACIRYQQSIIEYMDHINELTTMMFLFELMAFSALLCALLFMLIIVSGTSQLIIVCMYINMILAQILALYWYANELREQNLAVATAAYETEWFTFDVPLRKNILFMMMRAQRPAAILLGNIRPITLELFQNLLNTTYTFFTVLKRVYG
Sequence (Q9VNB5 1-486 partner): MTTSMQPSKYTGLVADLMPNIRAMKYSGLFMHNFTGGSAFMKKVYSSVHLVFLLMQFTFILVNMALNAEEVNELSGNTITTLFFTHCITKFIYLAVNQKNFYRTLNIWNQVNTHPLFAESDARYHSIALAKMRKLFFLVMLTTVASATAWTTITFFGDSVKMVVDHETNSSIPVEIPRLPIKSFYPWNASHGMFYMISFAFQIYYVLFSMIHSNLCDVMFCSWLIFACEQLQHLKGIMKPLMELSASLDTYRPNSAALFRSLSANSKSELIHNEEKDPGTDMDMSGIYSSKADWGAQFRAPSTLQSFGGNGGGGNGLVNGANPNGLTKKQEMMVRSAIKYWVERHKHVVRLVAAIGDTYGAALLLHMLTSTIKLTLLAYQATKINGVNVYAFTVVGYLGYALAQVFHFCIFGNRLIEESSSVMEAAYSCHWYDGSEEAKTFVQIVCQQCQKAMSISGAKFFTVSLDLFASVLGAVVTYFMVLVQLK
Assay: cell-based
Settings: HEK293; VOC concentration 1 μM; read-out: OR49b response (VUAA1-normalized response)
observation type: activation at 1 µM

// solved cases for activation at 1 µM follow
• CC1=CC[C@@H](C(C)(C)O)CC1 [alpha-terpineol] = 0%
• C=C1CC/C=C(\C)CC[C@@H]2[C@@H]1CC2(C)C [(-)-trans-caryophyllene] = 0%
• C=C1CCC2CC1C2(C)C (stereo not drawn) [beta-pinene] = 6.58%
• CCOC(=O)CC [ethyl propionate] = 0%

Here is the next item to consider.
For record Cc1cccc(O)c1 [3-methylphenol] the listed activation at 1 µM is 0%

###

Consider the following compounds and their measured OR47a response (VUAA1-normalized) at 10 μM readings.
Molecular target: Drosophila OR47a (Drosophila melanogaster, UniProt P81921)
Construct: expressed in transfected cells
Sequence (P81921 whole entry, one chain of several): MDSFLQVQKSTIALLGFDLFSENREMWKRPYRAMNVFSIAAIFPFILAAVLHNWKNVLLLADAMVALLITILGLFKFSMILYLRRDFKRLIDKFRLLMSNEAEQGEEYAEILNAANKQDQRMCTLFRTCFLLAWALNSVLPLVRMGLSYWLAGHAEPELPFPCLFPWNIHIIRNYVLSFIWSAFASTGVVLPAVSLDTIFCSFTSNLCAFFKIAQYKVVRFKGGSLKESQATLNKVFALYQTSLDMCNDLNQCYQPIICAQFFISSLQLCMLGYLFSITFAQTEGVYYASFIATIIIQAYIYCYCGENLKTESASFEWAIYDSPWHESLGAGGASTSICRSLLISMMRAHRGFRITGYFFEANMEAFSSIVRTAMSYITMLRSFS
Assay: Calcium ion fluorescence (GCaMP6) assay, OR47a stable HEK293 cell line
Assay type: cell-based
Conditions: OR47a cell line, VOC concentration 10 μM
Respond using a number only.

// solved cases for OR47a response (VUAA1-normalized) at 10 μM follow
• C=CC(C)(O)CCC=C(C)C (stereo not shown) = 0.00
• CCCCCCCCC=O = 0.00
• Cc1ccccc1 = 0.00
• Cc1cccc(C)c1 = 0.00

For record Cc1ccc(C(C)C)cc1 the listed OR47a response (VUAA1-normalized) at 10 μM is 0.00

For record CC/C=C\CCO the listed OR47a response (VUAA1-normalized) at 10 μM is 0.0571

For record C=C1CCC2(C(C)C)CC12 (stereo not shown) the listed OR47a response (VUAA1-normalized) at 10 μM is 0.00

For record CCCCCCCCCCCCCC the listed OR47a response (VUAA1-normalized) at 10 μM is 0.00

For record OCCc1ccccc1 the listed OR47a response (VUAA1-normalized) at 10 μM is 0.0644
